Target: HIV Env, isolate ZM109F.PB4 (HIV)
Assay: cell-based or functional assay
PARAMETER: IC80 (µg/ml) with constrains (µg/mL)

>>> reported_measurement("ePGDM5 (antibody, V domains shown) VH: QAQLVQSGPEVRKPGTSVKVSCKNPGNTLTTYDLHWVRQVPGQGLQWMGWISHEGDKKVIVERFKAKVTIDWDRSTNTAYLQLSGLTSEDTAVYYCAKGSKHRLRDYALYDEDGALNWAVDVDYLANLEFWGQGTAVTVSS VL: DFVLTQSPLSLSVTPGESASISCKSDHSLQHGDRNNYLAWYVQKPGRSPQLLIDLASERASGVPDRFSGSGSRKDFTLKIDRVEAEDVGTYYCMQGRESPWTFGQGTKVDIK")
0.121
>>> reported_measurement("ePGDM9 (antibody, V domains shown) VH: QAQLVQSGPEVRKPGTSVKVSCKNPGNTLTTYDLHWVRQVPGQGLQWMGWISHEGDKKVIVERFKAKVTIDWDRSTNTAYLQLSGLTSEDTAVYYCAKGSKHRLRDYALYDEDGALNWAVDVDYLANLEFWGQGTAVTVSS VL: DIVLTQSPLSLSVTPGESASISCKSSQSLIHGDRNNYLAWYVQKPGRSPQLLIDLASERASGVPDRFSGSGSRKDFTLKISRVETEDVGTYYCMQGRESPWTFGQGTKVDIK")
0.106
>>> reported_measurement("ePGDM13 (antibody, V domains shown) VH: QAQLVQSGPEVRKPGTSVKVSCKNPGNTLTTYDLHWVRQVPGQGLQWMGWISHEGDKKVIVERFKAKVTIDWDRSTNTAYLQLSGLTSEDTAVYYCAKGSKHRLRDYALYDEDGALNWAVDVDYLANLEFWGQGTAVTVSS VL: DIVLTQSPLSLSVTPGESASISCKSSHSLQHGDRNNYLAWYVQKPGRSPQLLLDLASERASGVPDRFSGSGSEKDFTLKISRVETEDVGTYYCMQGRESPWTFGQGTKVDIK")
0.196
